Assay info: Aqueous solubility
Assay type: physicochemical
Condition info: McIlvaine buffer pH 6.8 with 2.5% DMSO, pH 6.8, aqueous buffer, kinetic from dmso stock, McIlvaine buffer pH 6.8, 2.5% DMSO, 24 h shaking
Everything with solubility at 24 h lower than 70 µg/mL is F; everything else, including exactly 70 µg/mL, is T.

Threshold query (solubility at 24 h >= 70 µg/mL) on N#Cc1ccc([C@@H]2C3=C(CCC3=O)N(c3cccc(C(F)F)c3)C(=O)N2C(=O)NCCCO)cc1 [Example 52A]
T

What do you get for N#Cc1ccc(C2C3=C(CCC3=O)N(c3cccc(C(F)(F)F)c3)C(=O)N2C(=O)N[C@H]2COC[C@H]2O)cc1 (stereo partly drawn) [Example 42.6] ?
F

What do you get for CS(=O)(=O)c1cc(C#N)ccc1[C@@H]1C2=C(CCC2=O)N(c2cccc(C(F)(F)F)c2)C(=O)N1CC#N [Example 23] ?
F

What do you get for CCS(=O)(=O)c1cc(C#N)ccc1C1NC(=O)N(c2cccc(C(F)(F)F)c2)C2=C1C(=O)CC2 (stereo not drawn) [Example 14] ?
F

What do you get for CC(C)(O)CNC(=O)N1C(=O)N(c2cccc(C(F)(F)F)c2)C2=C(C(=O)CC2)[C@H]1c1ccc(C#N)cc1 [Example 41A] ?
T

What do you get for CCNC(=O)N1C(=O)N(c2cccc(C(F)F)c2)C2=C(C(=O)CC2)C1c1ccc(C#N)cc1 (stereo not drawn) [Example 52.2] ?
F

What do you get for CN1C(=O)N(c2cccc(C(F)F)c2)C2=C(C(=O)CC2)[C@H]1c1ccc(C#N)cc1 [Example 26A] ?
F

What do you get for N#Cc1ccc([C@@H]2C3=C(CCC3=O)N(c3cccc(C(F)(F)F)c3)C(=O)N2C(=O)N[C@H]2CCC[C@@H]2O)cc1 [Example 45.4] ?
F

What do you get for CS(=O)(=O)c1cc(C#N)ccc1C1C2=C(CCC2=O)N(c2cccc(C(F)(F)F)c2)C(=O)N1CC(=O)O (stereo not drawn) [Example 19] ?
T

What do you get for CCNC(=O)N1C(=O)N(c2cccc(C(F)(F)F)c2)C2=C(C(=O)CC2)[C@H]1c1ccc(C#N)cc1S(C)(=O)=O [Example 47.2] ?
F

What do you get for CS(=O)(=O)c1cc(C#N)ccc1[C@H]1NC(=O)N(c2cccc(C(F)(F)F)c2)C2=C1C(=O)CC2 [Example 10A] ?
T

====

Assay info: Drug transport across human Caco-2 cells
Type: in vitro ADME
Condition info: human, Caco-2, pH 7.2, PEBA/PEAB, Caco-2
Endpoint name: efflux ratio at 10 μM
Kindly provide the number alone.

Request the reported efflux ratio at 10 μM associated with N#Cc1ccc(C2C3=C(CCC3=O)N(c3cccc(C(F)(F)F)c3)C(=O)N2C(=O)N[C@@H]2CCC[C@H]2O)cc1 (stereo partly drawn) [Example 42.3]
2.4

What do you get for CC(C)(O)CNC(=O)N1C(=O)N(c2cccc(C(F)(F)F)c2)C2=C(C(=O)CC2)[C@H]1c1ccc(C#N)cc1 [Example 41A] ?
6.8

What do you get for CCS(=O)(=O)N1C(=O)N(c2cccc(C(F)(F)F)c2)C2=C(C(=O)CC2)C1c1ccc(C#N)cc1 (stereo not drawn) [Example 35] ?
1.3

====

Target desc: neutrophil elastase in human plasma (Homo sapiens (Human))
Sequence (P08246 30-247): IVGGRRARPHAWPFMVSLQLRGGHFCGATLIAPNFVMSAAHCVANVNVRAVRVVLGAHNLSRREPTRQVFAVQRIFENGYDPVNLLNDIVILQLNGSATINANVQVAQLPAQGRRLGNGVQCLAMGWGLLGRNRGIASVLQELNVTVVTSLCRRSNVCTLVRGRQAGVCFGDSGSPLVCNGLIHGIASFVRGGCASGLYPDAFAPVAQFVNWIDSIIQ
Assay info: Neutrophil elastase inhibitory activity in human plasma (zymosan-stimulated blood)
Type: biochemical
Condition info: neutrophil elastase enriched human plasma from zymosan-stimulated blood; read-out: EC50
Kindly supply the reported EC50 values for the records listed here.

Request the reported EC50 associated with `CS(=O)(=O)c1cc(C#N)ccc1[C@@H]1C2=C(CCC2=O)N(c2cccc(C(F)(F)F)c2)C(=O)N1C(=O)NC1CC1`
< 1 nM

What do you get for CCNC(=O)N1C(=O)N(c2ccnc(C(F)(F)F)c2)C2=C(C(=O)CC2)C1c1ccc(C#N)cc1 (racemic) ?
< 1 nM

What do you get for `CNC(=O)N1C(=O)N(c2cccc(C(F)(F)F)c2)C2=C(C(=O)CC2)[C@H]1c1ccc(C#N)cc1S(C)(=O)=O` ?
< 1 nM

What do you get for N#Cc1ccc([C@@H]2C3=C(CCC3=O)N(c3cccc(C(F)F)c3)C(=O)N2C(=O)NCCCO)cc1 [Example 52A] ?
< 1 nM

What do you get for `COC(=O)N1C(=O)N(c2cccc(C(F)(F)F)c2)C2=C(C(=O)CC2)[C@H]1c1ccc(C#N)cc1S(C)(=O)=O` ?
< 1 nM

====

Target desc: Human neutrophil elastase (Homo sapiens (Human), UniProt P08246)
Sequence (P08246 30-247): as above
Assay info: Human Neutrophil Elastase Assay
Type: biochemical
Condition info: human neutrophil elastase, substrate MeOSuc-Ala-Ala-Pro-Val-AMC 250 μM, pH 7.5; read-out: IC50
Please assign a class to every record based on measured IC50, with ranges class 1: < 3 nM; class 2: ≥ 3 nM and < 9 nM; class 3: ≥ 9 nM

Hello team, could you let me know which band the following compound falls into: CS(=O)(=O)c1cc(C#N)ccc1[C@@H]1C2=C(CCC2=O)N(c2cccc(C(F)(F)F)c2)C(=O)N1C(=O)NCC1CC(O)C1 (stereo partly shown)
class 1

What do you get for `CS(=O)(=O)c1cc(C#N)ccc1[C@@H]1C2=C(CCC2=O)N(c2cccc(C(F)(F)F)c2)C(=O)N1S(C)(=O)=O` ?
class 1

What do you get for CC(C)(O)CNC(=O)N1C(=O)N(c2cccc(C(F)F)c2)C2=C(C(=O)CC2)C1c1ccc(C#N)cc1 (stereo not shown) ?
class 1

What do you get for CS(=O)(=O)c1cc(C#N)ccc1C1C2=C(CCC2=O)N(c2cccc(C(F)(F)F)c2)C(=O)N1CCC1CCOCC1 (stereo not shown) ?
class 1

What do you get for CNC(=O)N1C(=O)N(c2cccc(C(F)(F)F)c2)C2=C(C(=O)CC2)C1c1ccc(C#N)cc1Br (stereo not shown) ?
class 1

What do you get for Cc1cc(C#N)ccc1C1C2=C(CCC2=O)N(c2cccc(C(F)(F)F)c2)C(=O)N1S(C)(=O)=O (stereo not shown) ?
class 2

What do you get for CCNC(=O)N1C(=O)N(c2cccc(C(F)(F)F)c2)C2=C(C(=O)CC2)C1c1ccc(C#N)cc1S(=O)(=O)CC (stereo not shown) ?
class 1

What do you get for CNC(=O)N1C(=O)N(c2cccc(C(F)(F)F)c2)C2=C(C(=O)CC2)[C@H]1c1ccc(C#N)cc1F [Example 49A] ?
class 1

What do you get for C[S+]([O-])c1cc(C#N)ccc1C1NC(=O)N(c2cccc(C(F)(F)F)c2)C2=C1C(=O)CC2 (single isomer, unassigned) [Example 17A] ?
class 2

What do you get for COC(=O)CCCS(=O)(=O)N1C(=O)N(c2cccc(C(F)(F)F)c2)C2=C(C(=O)CC2)C1c1ccc(C#N)cc1 (stereo not shown) ?
class 2

What do you get for CCNC(=O)N1C(=O)N(c2cccc(C(F)(F)F)c2)C2=C(C(=O)CC2)C1c1ccc(C#N)cc1F (stereo not shown) ?
class 1

What do you get for `CCNC(=O)N1C(=O)N(c2cccc(C(F)(F)F)c2)C2=C(C(=O)CC2)[C@H]1c1ccc(C#N)cc1S(C)(=O)=O` ?
class 1

What do you get for `CS(=O)(=O)c1cc(C#N)ccc1[C@@H]1C2=C(CCC2=O)N(c2cccc(C(F)(F)F)c2)C(=O)N1C(=O)N[C@H]1CCCC[C@@H]1O` ?
class 1

What do you get for COc1cc(C#N)ccc1C1C2=C(CCC2=O)N(c2cccc(C(F)(F)F)c2)C(=O)N1C (stereo not shown) ?
class 3

What do you get for N#Cc1ccc(C2NC(=O)N(c3cccc(C(F)(F)F)c3)C3=C2C(=O)CC3)c(Cl)c1 (stereo not shown) ?
class 3

What do you get for N#Cc1ccc(C2NC(=O)N(c3cccc(C(F)(F)F)c3)C3=C2C(=O)CC3)c(F)c1 (stereo not shown) ?
class 3

What do you get for `CS(=O)(=O)c1cc(C#N)ccc1[C@H]1NC(=O)N(c2cccc(C(F)F)c2)C2=C1C(=O)CC2` ?
class 1

What do you get for CS(=O)(=O)c1cc(C#N)ccc1C1C2=C(CCC2=O)N(c2cccc(C(F)(F)F)c2)C(=O)N1CC1CCOCC1 (stereo not shown) ?
class 1

What do you get for CSc1cc(C#N)ccc1C1C2=C(CCC2=O)N(c2cccc(C(F)(F)F)c2)C(=O)N1C (stereo not shown) ?
class 2

What do you get for CCN1C(=O)N(c2cccc(C(F)(F)F)c2)C2=C(C(=O)CC2)C1c1ccc(C#N)cc1S(C)(=O)=O (stereo not shown) ?
class 1

What do you get for COC(=O)CN1C(=O)N(c2cccc(C(F)(F)F)c2)C2=C(C(=O)CC2)C1c1ccc(C#N)cc1 (stereo not shown) ?
class 3

====

Target desc: Human neutrophil elastase (Homo sapiens (Human), UniProt P08246)
Assay info: Human Neutrophil Elastase Assay
Assay type: biochemical
Condition info: human neutrophil elastase, substrate MeOSuc-Ala-Ala-Pro-Val-AMC 250 μM, pH 7.5; read-out: IC50
Endpoint name: IC50 (nM)
The reply should be a number in nM, with the unit left off.

Request the reported IC50 associated with CS(=O)(=O)c1cc(C#N)ccc1[C@@H]1NC(=O)N(c2cccc(C(F)F)c2)C2=C1C(=O)CC2 [Example 15.4B]
57.7

What do you get for CS(=O)(=O)c1cc(C#N)ccc1[C@@H]1C2=C(CCC2=O)N(c2cccc(C(F)(F)F)c2)C(=O)N1CC#N [Example 23] ?
3.4
